Molecular target: human GnRH receptor (Homo sapiens, UniProt P30968)
Construct: expressed in transfected cells; host or cells: CHO (Chinese hamster ovary) cells
Sequence (P30968 whole entry): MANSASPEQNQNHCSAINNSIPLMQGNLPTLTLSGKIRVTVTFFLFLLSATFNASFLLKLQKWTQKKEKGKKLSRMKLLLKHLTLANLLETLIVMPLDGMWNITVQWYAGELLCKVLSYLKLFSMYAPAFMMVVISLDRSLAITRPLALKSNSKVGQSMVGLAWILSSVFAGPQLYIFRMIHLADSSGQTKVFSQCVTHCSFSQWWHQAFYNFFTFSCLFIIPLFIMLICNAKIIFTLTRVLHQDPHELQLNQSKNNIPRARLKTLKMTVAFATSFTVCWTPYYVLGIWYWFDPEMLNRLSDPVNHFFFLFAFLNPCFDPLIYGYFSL
Experiment: 125I-leuprorelin binding inhibition, CHO cell membrane fraction containing human GnRH receptor
Conditions: 25° C. for 60 minutes, Hill plot
readoutLabel: IC50 (µM)

[[record]]
molsmiles = "CONC(=O)Nc1ccc(-c2sc3c(c2CN2Cc4ccccc4C2)c(=O)n(-c2ccccc2)c(=O)n3Cc2c(F)cccc2F)cc1"
readoutlabel = "IC50"
displayunit = "µM"
numericvalue = 0.0002


---

Biological target: GnRH receptors (rat pituitary anterior lobe membrane fraction) (Rattus norvegicus)
Construct: Anterior lobes of the pituitary glands were isolated from forty Wistar rats; from tissue; host or cells: anterior lobes of pituitary glands of male Wistar rats
Sequence (P30969 1-327): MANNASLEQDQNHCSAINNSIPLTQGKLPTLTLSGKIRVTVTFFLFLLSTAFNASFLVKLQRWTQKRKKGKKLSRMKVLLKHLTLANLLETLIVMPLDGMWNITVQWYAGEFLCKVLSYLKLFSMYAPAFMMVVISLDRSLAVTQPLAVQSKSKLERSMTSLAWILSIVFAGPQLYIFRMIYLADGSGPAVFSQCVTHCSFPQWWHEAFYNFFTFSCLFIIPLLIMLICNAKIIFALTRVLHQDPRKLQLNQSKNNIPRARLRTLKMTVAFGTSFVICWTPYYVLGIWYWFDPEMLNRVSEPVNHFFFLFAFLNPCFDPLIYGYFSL
Assay: 125I-leuprorelin binding inhibition, rat pituitary anterior lobe membrane fraction
Details: 125I-leuprorelin binding; calculated from Hill plot
readoutLabel: IC50 (µM)

[[record]]
molsmiles = "CONC(=O)Nc1ccc(-c2sc3c(c2CN2Cc4ccccc4C2)c(=O)n(-c2ccccc2)c(=O)n3Cc2c(F)cccc2F)cc1"
displayunit = "µM"
numericvalue = 0.5

